- tgt: P2X7 receptor (Homo sapiens)
- Construct: host or cells: THP-1 cells differentiated with LPS and IFN-γ
- Sequence (Q99572 whole entry): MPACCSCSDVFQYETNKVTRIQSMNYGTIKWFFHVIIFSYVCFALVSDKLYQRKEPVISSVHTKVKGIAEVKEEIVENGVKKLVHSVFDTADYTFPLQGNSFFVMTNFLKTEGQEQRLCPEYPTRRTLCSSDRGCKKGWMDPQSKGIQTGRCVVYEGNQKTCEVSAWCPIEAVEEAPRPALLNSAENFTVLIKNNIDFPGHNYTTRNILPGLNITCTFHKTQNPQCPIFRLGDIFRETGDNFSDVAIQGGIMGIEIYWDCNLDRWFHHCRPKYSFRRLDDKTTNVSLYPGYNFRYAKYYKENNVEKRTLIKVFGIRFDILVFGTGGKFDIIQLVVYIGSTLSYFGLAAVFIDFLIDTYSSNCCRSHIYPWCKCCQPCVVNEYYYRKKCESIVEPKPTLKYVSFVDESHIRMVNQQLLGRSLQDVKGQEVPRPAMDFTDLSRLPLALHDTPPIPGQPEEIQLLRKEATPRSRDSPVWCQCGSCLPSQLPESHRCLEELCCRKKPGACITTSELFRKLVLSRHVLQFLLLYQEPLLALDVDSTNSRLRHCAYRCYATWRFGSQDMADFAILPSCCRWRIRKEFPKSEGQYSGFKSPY
- measurement_protocol: IL-1β release assay in differentiated THP-1 cells stimulated with BzATP (Example 9)
- Format: cell-based
- condition_label: 0.1 μM compound (symbols *); differentiated THP-1 cells, BzATP 250 uM; read-out: IL-1β % Inhib. @ 0.3 or 0.1 uM
- Description: THP-1 cells (ATCC Cat #285-IF-100) are plated in 96 well plates at a concentration of 200,000 cells per well and allowed to differentiate in RPMI-1640 media (ATCC Cat #30-2001) containing 10% FBS, 100 IU/mL penicillin, 100 ug/mL streptomycin, 100 ng/mL LPS and 100 ng/mL IFN-γ for 16 hours. […] 30 uL of cell supernatant is then collected and IL-1β levels determined via ELISA (R&D systems Cat. #HSLB50) according to manufacturer's recommendations using the Tecan Safire plate reader. […]
Task for the reader: assign each of the following compounds its reported inhibition at 0.1 µM.

Below are worked cases with known answers.
{"columns": ["compound", "inhibition at 0.1 µM"],
 "data": [
  ["Cc1cc(C)c(CC(=O)Nc2cccc3c(=O)n(CC(C)O)ccc23)c(C)c1 (stereo not drawn) [Compound 129]", "0 to 25%"],
  ["COc1cc(OC)cc(C(=O)Nc2cccc3c(=O)n(CC4(O)CCCCC4)ccc23)c1 [Compound 19]", "0 to 25%"],
  ["Cc1ccc(C)c(CC(=O)Nc2cccc3c(=O)n(CC(C)O)ccc23)c1 (stereo not drawn) [Compound 130]", "26 to 50%"],
  ["Cc1cccc(CC(=O)Nc2cccc3c(=O)n(CC(C)O)ccc23)c1 (stereo not drawn) [Compound 159]", "0 to 25%"],
  ["COc1cc(CC(=O)Nc2cccc3c(=O)n(C(C)CO)ccc23)cc(OC)c1 (stereo not drawn) [Compound 114]", "0 to 25%"]
]}

Quick request: inhibition at 0.1 µM for each listed item, please.
1. Cc1cc(C)cc(CC(=O)Nc2cccc3c(=O)n(C(C)CO)ccc23)c1 (stereo not drawn) [Compound 119]
2. Cc1cccc(C(=O)Nc2cccc3c(=O)n(CC4(O)CCCCC4)ccc23)c1 [Compound 20]

1. 0 to 25%
2. 0 to 25%

Quick request: inhibition at 0.1 µM for each listed item, please.
1. COc1cc(CC(=O)Nc2cccc3c(=O)n(CC(C)O)ccc23)cc(OC)c1 (stereo not drawn) [Compound 166]
2. Cc1ccccc1CCC(=O)Nc1cccc2c(=O)n(CC(C)O)ccc12 (stereo not drawn) [Compound 126]
3. COc1ccc(C(=O)Nc2cccc3c(=O)n(C(C)CO)ccc23)cc1Cl (stereo not drawn) [Compound 92]
4. CC(O)Cn1ccc2c(NC(=O)CCCc3ccccc3)cccc2c1=O (stereo not drawn) [Compound 163]
5. Cc1cccc(C(=O)Nc2cccc3c(=O)n(CC(C)O)ccc23)c1C (stereo not drawn) [Compound 140]
6. CC(C(=O)Nc1cccc2c(=O)n(C(C)CO)ccc12)c1ccccc1 (stereo not drawn) [Compound 103]
7. COc1ccc(CC(=O)Nc2cccc3c(=O)n(C(C)CO)ccc23)c(OC)c1 (stereo not drawn) [Compound 120]

1. 0 to 25%
2. 26 to 50%
3. 0 to 25%
4. 0 to 25%
5. 0 to 25%
6. 0 to 25%
7. 0 to 25%

Quick request: inhibition at 0.1 µM for each listed item, please.
1. COc1ccc(C(=O)Nc2cccc3c(=O)n(CC4(O)CCCCC4)ccc23)c(C)c1 [Compound 83]
2. Cc1ccccc1CCC(=O)Nc1cccc2c(=O)n(C(C)CO)ccc12 (stereo not drawn) [Compound 90]
3. CCOc1ccc(C(=O)Nc2cccc3c(=O)n(CC(C)(C)O)ccc23)c(O)c1 [Compound 185]
4. COc1c(C)cc(C(=O)Nc2cccc3c(=O)n(CC(C)O)ccc23)cc1C (stereo not drawn) [Compound 167]

0 to 25%
26 to 50%
0 to 25%
0 to 25%
